Assignment: determine reported fold difference in affinity vs parental for the given binders.
Biological target: T1, IL-1beta (UniProt P01584 117-269)
T1 construct: also called IL-1β
Test: Biacore
Please answer using the number first and the unit second.

* XPA23 Fab, heavy chain D106S (Fab, V domains shown) VH: EVQLLESGGGLVQPGGSLRLSCAASGFTFSKYFMFWVRQAPGKGLEWVSVISPSGGMTRYADSVKGRFTISRDNSKNTLYLQMNSLRAEDTAVYYCARVGYGGNSSYWGQGTLVTVSS VL: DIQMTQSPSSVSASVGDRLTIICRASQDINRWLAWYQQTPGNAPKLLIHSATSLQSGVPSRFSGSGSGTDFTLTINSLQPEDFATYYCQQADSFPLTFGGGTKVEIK | 0.03 fold

(Q) Endpoint output: fold difference in affinity vs parental of XPA23 Fab, heavy chain G100H (Fab, V domains shown) VH: EVQLLESGGGLVQPGGSLRLSCAASGFTFSKYFMFWVRQAPGKGLEWVSVISPSGGMTRYADSVKGRFTISRDNSKNTLYLQMNSLRAEDTAVYYCARVHYGGNSDYWGQGTLVTVSS VL: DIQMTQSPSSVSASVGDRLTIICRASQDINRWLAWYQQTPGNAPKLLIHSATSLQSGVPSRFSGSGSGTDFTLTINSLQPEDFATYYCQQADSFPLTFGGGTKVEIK . Value?
(A) 0.06 fold
